# assay_protocol: protein stability index of a GFP-peptide fusion (GPS, HEK-293T) (PSI 1-6); higher = more stable;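 note: 24-mer peptide tiles fused after GFP, lentivirally expressed, FACS-sorted into six equal bins by GFP/DsRed ratio, decoded by Illumina sequencing, PSI is the read-weighted mean bin number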
# condition_details: treatment: MLN4924 1 uM, 8 h; c terminus: a fixed tail appended
Form field: protein stability index (one value per entry).

primary_sequence="FLMLAVSLTVPLLGAMMLLESPID [APMAP]" measured_property="protein stability index" recorded_result=3.64
primary_sequence="MLPTVITDIKDESCCMTEEIFGPV [ALDH8A1]" measured_property="protein stability index" recorded_result=3.81
primary_sequence="AQRLRPQDEPRQGCQPEDRRRRII [KCNG1]" measured_property="protein stability index" recorded_result=4.9
primary_sequence="IWDALDWTMQAYERNFWDPSPQLD [WDR41]" measured_property="protein stability index" recorded_result=2.02
primary_sequence="QLISRMEYVHSKNLIYRDVKPENF [CSNK1G3]" measured_property="protein stability index" recorded_result=2.42
primary_sequence="IFRSYSRGAQGVILVYDIANRWSF [RAB40A]" measured_property="protein stability index" recorded_result=2.36
primary_sequence="LAVYHRLWDRAYVRLKPALQRLDF [RETREG3]" measured_property="protein stability index" recorded_result=2.56
primary_sequence="DRIATTDDTTAMASASSSATGSFS [MAGEA10]" measured_property="protein stability index" recorded_result=5.28

Data request: Give protein stability index for the following sequence: ELLTDKSCQSFISWTGDGWEFKLS [ETS1]
Data returned: 2.55

Data request: Give protein stability index for the following sequence: EIKDLILPKISDPNFVKDLEEDLY [PI4K2A]
Data returned: 3.12

Data request: Give protein stability index for the following sequence: LASARIIEQDAVVPSEWLSSVYKQ [GMCL1]
Data returned: 3.19

Data request: Give protein stability index for the following sequence: SDPCGQLRPTLLLTSLHHFMHSRN [PNLIPRP1]
Data returned: 2.6

Data request: Give protein stability index for the following sequence: FLFVLGGEDQWNPNGKHSTNFVSR [KLHL14]
Data returned: 2.27

Data request: Give protein stability index for the following sequence: KLENARLSSEMNTSTVNSAREELM [LMNB1]
Data returned: 4.71

Data request: Give protein stability index for the following sequence: PLFYPGIRAGRKNAAPLTIRPPTD [TRIM39]
Data returned: 3.58

====

# assay_protocol: protein stability index of a GFP-peptide fusion (GPS, HEK-293T) (PSI 1-6); higher = more stable
# condition_details: treatment: DMSO; c terminus: a fixed tail appended
Label rule, in plain words: protein stability index of 3 and up is criterion met, under 3 is criterion not met.

# example entries with known answers
primary_sequence="VKGMQRIVNQWSEKFSDEGDSDSA [DLC1]" class_label="criterion met"
primary_sequence="LEALHLEALCEEDLLLWIQKHTEV [DENND6A]" class_label="criterion not met"
primary_sequence="DVLENAFAPLLDEQYDLATKRVRQ [GOLPH3]" class_label="criterion met"
primary_sequence="FSAEFLKVFIPSLFLSHVLALGLG [BNIP3L]" class_label="criterion met"
primary_sequence="EYMETGSLEKLLASEPLPWDLRFR [RIPK4]" class_label="criterion not met"
primary_sequence="RILGLDQKKDCVPLMKPHRPWADT [HESX1]" class_label="criterion not met"

Data request: Reported protein stability index at or above 3? SGSGNRLDGKKKGVEPSPSPIKPG [UFD1]
Data returned: criterion met

Data request: Reported protein stability index at or above 3? TEKTTTVLSESSGPSNTSHSSSRD [C2CD2L]
Data returned: criterion met

Data request: Reported protein stability index at or above 3? MIMLKDRRMTVVGRLEGLIQPDDL [FAF2]
Data returned: criterion not met

Data request: Reported protein stability index at or above 3? TLNSIWNVEDHINPKLPNISLDVL [POMT2]
Data returned: criterion not met

Data request: Reported protein stability index at or above 3? KGKLMVCYETLPRGQCLLYNWEEE [SPAG8]
Data returned: criterion not met

Data request: Reported protein stability index at or above 3? LEVADFLIKAGADIELGCSTPLME [ANKRD17]
Data returned: criterion not met

====

# assay_protocol: protein stability index of a GFP-peptide fusion (GPS, HEK-293T) (PSI 1-6); higher = more stable
# condition_details: treatment: DMSO; c terminus: a fixed tail appended
measured_property: protein stability index
API note: the answer field is a bare number with no unit suffix.

Worked cases, answers included:
primary_sequence="GFWEEERPFWEEEKTFWKEEKSFW [CCDC70]" recorded_result=2.85
primary_sequence="RETLKRKVSGNRCASPVTGPGSKR [ESR2]" recorded_result=3.92
primary_sequence="ISKNSEKKMESEEDSNWEKSPDNE [GOLPH3L]" recorded_result=5.57
primary_sequence="KELDENVEYEERESEFDIEDEDKS [RBBP5]" recorded_result=5.65
primary_sequence="LPFERLAFVLSSNSLKHCTELELF [KLHL13]" recorded_result=2.73

Data request: Give protein stability index for the following sequence: RAVQGPEETVTQDCLQLIADSETP [TNFSF13B]
Data returned: 5.38

Data request: Give protein stability index for the following sequence: REPYYARPEPELETFSPPLPAGPG [CPXM2]
Data returned: 4.7

====

# assay_protocol: protein stability index of a GFP-peptide fusion (GPS, HEK-293T) (PSI 1-6); higher = more stable
# condition_details: treatment: MLN4924 1 uM, 8 h; c terminus: a fixed tail appended
Label rule, in plain words: protein stability index of 3 and up is Fulfilled, under 3 is Not fulfilled.

Data request: Reported protein stability index at or above 3? GLPGAEGVEPAPWAQLEAPARLLL [FANCE]
Data returned: Fulfilled

Data request: Reported protein stability index at or above 3? HRNLSQLPNFAFSVPLAYFLLSQQ [TCF25]
Data returned: Not fulfilled

Data request: Reported protein stability index at or above 3? EDVLLLNFEEMRALLDSLPPPVES [KLHL14]
Data returned: Fulfilled

Data request: Reported protein stability index at or above 3? MVRKIGCYAAMKKKIYAMGGGSYG [GAN]
Data returned: Not fulfilled

Data request: Reported protein stability index at or above 3? SPSFQLKAAALPPFPLGASAQNGL [PLAGL1]
Data returned: Fulfilled

Data request: Reported protein stability index at or above 3? ISLNMCLLGALVLLGLGVLLFSGG [PBXIP1]
Data returned: Not fulfilled

Data request: Reported protein stability index at or above 3? GARDGIRYLEAEFKKGNRYIRCQK [SMG5]
Data returned: Fulfilled

====

# assay_protocol: protein stability index of a GFP-peptide fusion (GPS, HEK-293T) (PSI 1-6); higher = more stable
# condition_details: treatment: DMSO; c terminus: a fixed tail appended
Form field: protein stability index (one value per entry).
API note: the answer field is a bare number with no unit suffix.

Worked cases, answers included:
primary_sequence="NTTLTQYQLLATHVPTVWAIDQYR [RHOBTB1]" recorded_result=2.75
primary_sequence="DLHRQFPFHEMFVSRGGHGQQDLF [TBC1D10A]" recorded_result=2.73
primary_sequence="GERPYKCSECGESFSRSSRLMSHQ [ZNF263]" recorded_result=3.25
primary_sequence="LTGFSWRGGSDPETTGIQIWSEVF [ATL3]" recorded_result=2.16
primary_sequence="RLCTWLLALSPDLSLSNATVLTRS [FANCE]" recorded_result=2.92

Data request: Give protein stability index for the following sequence: QKNFGLYVQEKRDGLKRRQQLEEE [RAD54B]
Data returned: 4.7

Data request: Give protein stability index for the following sequence: AEDKAAVERSKMIDRNLREDGEKA [GNAI1]
Data returned: 5.69

Data request: Give protein stability index for the following sequence: GGLSPVTNLTVTMDQLQGLGSDYE [CDC25A]
Data returned: 4.24

Data request: Give protein stability index for the following sequence: QAQAVQTEQAVALLRDRTGQQSDT [SCARA5]
Data returned: 5.35

Data request: Give protein stability index for the following sequence: TWRDPQDEVPGSQGSQASQAPPVP [NR2F2]
Data returned: 5.18

Data request: Give protein stability index for the following sequence: LARGPLNQTALHLAAAHGHSEVVE [RIPK4]
Data returned: 4.36

Data request: Give protein stability index for the following sequence: DLLRNTHFRGVSLNLTRKLAQQLC [DYRK1B]
Data returned: 2.35

Data request: Give protein stability index for the following sequence: LNLTEGFAVLHWKPPQNPVDTYDV [TNXB]
Data returned: 2.5

Data request: Give protein stability index for the following sequence: PPPPPPPPAELKAEPGFEPADCKR [CEBPB]
Data returned: 5.52

Data request: Give protein stability index for the following sequence: ATSRTDREIKVTLVFEHVDQDLRT [CDK4]
Data returned: 2.2

Data request: Give protein stability index for the following sequence: SEDEEEYESGYAFLPDLLIFQMVI [SMG5]
Data returned: 2.76

Data request: Give protein stability index for the following sequence: VQAPRWGNPRALSFVLSSLQLGEG [OAS1]
Data returned: 2.31

Data request: Give protein stability index for the following sequence: DSEEELAAFCPQLDDSTVARELAI [RETREG3]
Data returned: 5.12

Data request: Give protein stability index for the following sequence: DLDAKIREALVLRSVRVRLLLSFW [PLD5]
Data returned: 3.52

Data request: Give protein stability index for the following sequence: DKDKSPESHKAKNESWIKSHFSRL [C10orf62]
Data returned: 3.46

Data request: Give protein stability index for the following sequence: QLPGLLNFGEFKCSDSDKKCHLWT [CLCN6]
Data returned: 2.56
